Origin of values: patent US20260250371A1

Molecular target: T1, recombinant human FGF23 (R179Q) (human, UniProt Q9GZV9 25-251)
T1 construct: also called rhFGF23(R179Q); hFGF23(R179Q)
T1 sequence (looked up): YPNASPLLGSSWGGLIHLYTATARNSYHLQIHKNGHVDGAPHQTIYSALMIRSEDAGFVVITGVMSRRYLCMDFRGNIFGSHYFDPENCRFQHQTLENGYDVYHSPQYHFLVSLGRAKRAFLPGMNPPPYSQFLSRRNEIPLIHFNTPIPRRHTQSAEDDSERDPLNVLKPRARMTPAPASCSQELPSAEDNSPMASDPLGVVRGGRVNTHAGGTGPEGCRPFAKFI
Assay: SPR, antibody captured on hIgG chip, rhFGF23(R179Q) analyte
Listed next: entries and their corresponding kon.
Kindly provide the numeric value in M⁻¹ s⁻¹ only, without the unit symbol.

Here's what some known entries look like.
UGX202 (antibody, human IgG1, kappa, V domains shown, also called HC:S59E, LC:N92Y; S59E/N92Y) VH: QVQLVQSGAEVKKPGASVKVSCKASGYTFTNHYMHWVRQAPGQGLEWMGIINPISGSTENAQKFQGRVTMTRDTSTSTVYMELSSLRSEDTAVYYCARDIVDAFDFWGQGTMVTVSS VL: AIQLTQSPSSLSASVGDRVTITCRASQGISSALVWYQQKPGKAPKLLIYDASSLESGVPSRFSGSGSGTDFTLTISSLQPEDFATYYCQQFYDYFTFGPGTKVDIKR; 1.29e+07
UGX201 (antibody, human IgG1, kappa, V domains shown, also called HC:S59E, LC:N92F; S59E/N92F) VH: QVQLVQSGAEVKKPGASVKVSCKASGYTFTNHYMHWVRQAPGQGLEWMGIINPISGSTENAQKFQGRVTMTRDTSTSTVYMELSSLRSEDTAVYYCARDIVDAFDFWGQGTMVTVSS VL: AIQLTQSPSSLSASVGDRVTITCRASQGISSALVWYQQKPGKAPKLLIYDASSLESGVPSRFSGSGSGTDFTLTISSLQPEDFATYYCQQFFDYFTFGPGTKVDIKR; 1.12e+07
UGX206 (antibody, human IgG1, kappa, V domains shown, also called HC:S59E, LC:Y94E; S59E/Y94E) VH: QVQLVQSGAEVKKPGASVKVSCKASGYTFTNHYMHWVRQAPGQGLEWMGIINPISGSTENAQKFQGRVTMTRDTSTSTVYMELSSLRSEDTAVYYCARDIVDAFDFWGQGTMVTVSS VL: AIQLTQSPSSLSASVGDRVTITCRASQGISSALVWYQQKPGKAPKLLIYDASSLESGVPSRFSGSGSGTDFTLTISSLQPEDFATYYCQQFNDEFTFGPGTKVDIKR; 6.25e+06
UGX204 (antibody, human IgG1, kappa, V domains shown, also called HC:S59E, LC:S52E; S59E/S52E) VH: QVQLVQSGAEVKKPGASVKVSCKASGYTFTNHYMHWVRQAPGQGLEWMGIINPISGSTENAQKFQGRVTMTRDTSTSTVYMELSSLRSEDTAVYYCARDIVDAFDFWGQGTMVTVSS VL: AIQLTQSPSSLSASVGDRVTITCRASQGISSALVWYQQKPGKAPKLLIYDAESLESGVPSRFSGSGSGTDFTLTISSLQPEDFATYYCQQFNDYFTFGPGTKVDIKR; 1.4e+07

Quote kon reported for Burosumab (antibody, human IgG1, kappa, V domains shown, Recombinant human IgG1 kappa; also called burosumab-twza; parental burosumab) VH: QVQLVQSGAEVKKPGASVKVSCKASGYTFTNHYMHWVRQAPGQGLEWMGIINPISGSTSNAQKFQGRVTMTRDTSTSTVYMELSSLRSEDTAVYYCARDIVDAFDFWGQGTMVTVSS VL: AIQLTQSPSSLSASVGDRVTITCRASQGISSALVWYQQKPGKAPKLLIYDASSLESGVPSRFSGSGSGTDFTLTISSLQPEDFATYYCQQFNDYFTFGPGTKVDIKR please.
7.22e+06
